# TEST_TARGET: M1 muscarinic receptors expressed in CHO cells (Homo sapiens, UniProt P11229)
# Construct: expressed in transfected cells; host or cells: CHO (CHO-hM1, stably transfected)
# Sequence (P11229 whole entry): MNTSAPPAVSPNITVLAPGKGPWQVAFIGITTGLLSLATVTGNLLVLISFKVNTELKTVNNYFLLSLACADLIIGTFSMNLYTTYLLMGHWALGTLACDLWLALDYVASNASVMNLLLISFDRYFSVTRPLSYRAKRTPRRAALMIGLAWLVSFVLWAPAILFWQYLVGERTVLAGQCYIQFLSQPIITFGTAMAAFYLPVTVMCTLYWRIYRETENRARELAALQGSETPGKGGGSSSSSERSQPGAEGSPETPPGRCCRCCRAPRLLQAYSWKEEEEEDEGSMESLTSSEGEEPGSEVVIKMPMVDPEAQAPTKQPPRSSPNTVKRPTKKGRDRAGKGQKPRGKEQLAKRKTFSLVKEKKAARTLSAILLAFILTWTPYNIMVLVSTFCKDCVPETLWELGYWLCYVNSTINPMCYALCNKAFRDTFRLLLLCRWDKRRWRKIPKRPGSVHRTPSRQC
# ASSAY_NOTES: [3H]-arachidonic acid release screen with and without ACh and modulator
# Assay type: cell-based
# COND: 10 μM modulator, 0.1 μM ACh; Table 1
MEASUREMENT_LABEL: Ratio of response of ACh with modulator to response of ACh alone, 0.1 μM ACh
Answer with a bare number; do not write a unit.

COMPOUND | REPORTED_RESULT
COc1c(F)cc(CN2C(=O)C(=O)c3ccccc32)cc1F | 1.33

Prompt: Report measured Ratio of response of ACh with modulator to response of ACh alone, 0.1 μM ACh; entry is `CCCCc1oc2ccccc2c1C(=O)c1cc(I)c(OCCNCC)c(I)c1.Cl`
Completion: 0.75

Prompt: Report measured Ratio of response of ACh with modulator to response of ACh alone, 0.1 μM ACh; entry is `COc1ccc(CN2C(=O)C(=O)c3ccccc32)cc1Cl`
Completion: 1.49
